Sourced from patent US20250304620A1

- System: Candida glabrata ATCC 15126
- Format: cell-based
Non-standard residues stand in square brackets, D forms with d. Residues, ends and D or L forms follow the SMILES beside them. dPhe(3,4-F2) = N[C@H](Cc1ccc(F)c(F)c1)C(=O)O; d2Nal = N[C@H](Cc1ccc2ccccc2c1)C(=O)O; dNle = CCCC[C@@H](N)C(=O)O
Would you kindly list MIC Candida glabrata ATCC 15126 for each of these molecules?
Numbers only, in µg/mL.

molecule: CCCC[C@@H](NC(=O)[C@@H](CCCCN)NC(=O)[C@@H](CCCNC(=N)N)NC(C)=O)C(=O)N[C@H](CCCC)C(=O)N[C@H](Cc1ccc2ccccc2c1)C(=O)N[C@H](CCCNC(=N)N)C(=O)N[C@H](CCCC)C(=O)N[C@H](CCCCN)C(=O)N[C@H](Cc1ccc2ccccc2c1)C(=O)N[C@H](CCCNC(=N)N)C(=O)N[C@H](CCCCN)C(N)=O [LV-12] (Ac-[dR][dK][dNle][dNle][d2Nal][dR][dNle][dK][d2Nal][dR][dK]-NH2)
measured-metric: MIC Candida glabrata ATCC 15126
measure-unit: µg/mL
measured: 4

molecule: CC(=O)N[C@H](CCCNC(=N)N)C(=O)N[C@H](CCCCN)C(=O)N[C@@H](C(=O)N[C@@H](C(=O)N[C@H](Cc1ccc2ccccc2c1)C(=O)N[C@H](CCCNC(=N)N)C(=O)N[C@@H](C(=O)N[C@H](CCCCN)C(=O)N[C@H](Cc1ccc2ccccc2c1)C(=O)N[C@H](CCCNC(=N)N)C(=O)N[C@H](CCCCN)C(N)=O)C(C)C)C(C)C)C(C)C [LV-16] (Ac-[dR][dK][dV][dV][d2Nal][dR][dV][dK][d2Nal][dR][dK]-NH2)
measured-metric: MIC Candida glabrata ATCC 15126
measure-unit: µg/mL
measured: 16

Alright, here's another molecule for you.
Query for Candida glabrata ATCC 15126: what MIC Candida glabrata ATCC 15126 does the record show for CC(=O)N[C@H](CCCNC(=N)N)C(=O)N[C@H](CCCCN)C(=O)N[C@H](CC(C)C)C(=O)N[C@H](CC(C)C)C(=O)N[C@H](Cc1ccc(F)c(F)c1)C(=O)N[C@H](CCCCN)C(=O)N[C@H](CC(C)C)C(=O)N[C@H](CCCCN)C(=O)N[C@H](Cc1ccc(F)c(F)c1)C(=O)N[C@H](CCCCN)C(=O)N[C@H](CCCNC(=N)N)C(N)=O [LV-6] (Ac-[dR][dK][dL][dL][dPhe(3,4-F2)][dK][dL][dK][dPhe(3,4-F2)][dK][dR]-NH2) ?
8

###

- Test system: Staphylococcus aureus ATCC 25923
- Format: cell-based
Non-standard residues stand in square brackets, D forms with d. Residues, ends and D or L forms follow the SMILES beside them. dPhe(4-Cl) = N[C@H](Cc1ccc(Cl)cc1)C(=O)O; d2Nal = N[C@H](Cc1ccc2ccccc2c1)C(=O)O; dNle = CCCC[C@@H](N)C(=O)O
measured-metric: MIC Staphylococcus aureus ATCC 25923 (µg/mL)
Give bare numbers, in µg/mL.

Field: example entries. Status: answers known.
molecule: CC(=O)N[C@H](CCCNC(=N)N)C(=O)N[C@H](CCCNC(=N)N)C(=O)N[C@H](CC(C)C)C(=O)N[C@H](CC(C)C)C(=O)N[C@H](Cc1ccc2ccccc2c1)C(=O)N[C@H](CCCCN)C(=O)N[C@H](CC(C)C)C(=O)N[C@H](CCCCN)C(=O)N[C@H](Cc1ccc2ccccc2c1)C(=O)N[C@H](CCCCN)C(=O)N[C@H](CCCNC(=N)N)C(N)=O [LV-24] (Ac-[dR][dR][dL][dL][d2Nal][dK][dL][dK][d2Nal][dK][dR]-NH2)
measured-metric: MIC Staphylococcus aureus ATCC 25923
measured: 1
//
molecule: CC(=O)N[C@H](CCCNC(=N)N)C(=O)N[C@H](CCCCN)C(=O)N[C@H](CC(C)C)C(=O)N[C@H](CC(C)C)C(=O)N[C@H](Cc1ccc(Cl)cc1)C(=O)N[C@H](CCCCN)C(=O)N[C@H](CC(C)C)C(=O)N[C@H](CCCCN)C(=O)N[C@H](Cc1ccc(Cl)cc1)C(=O)N[C@H](CCCCN)C(=O)N[C@H](CCCNC(=N)N)C(N)=O [LV-7] (Ac-[dR][dK][dL][dL][dPhe(4-Cl)][dK][dL][dK][dPhe(4-Cl)][dK][dR]-NH2)
measured-metric: MIC Staphylococcus aureus ATCC 25923
measured: 1

Alright, here's another molecule for you.
Name the reported MIC Staphylococcus aureus ATCC 25923 value associated with the molecule CCCC[C@@H](NC(=O)[C@@H](CCCCN)NC(=O)[C@@H](CCCNC(=N)N)NC(C)=O)C(=O)N[C@H](CCCC)C(=O)N[C@H](Cc1ccc2ccccc2c1)C(=O)N[C@H](CCCNC(=N)N)C(=O)N[C@H](CCCC)C(=O)N[C@H](CCCCN)C(=O)N[C@H](Cc1ccc2ccccc2c1)C(=O)N[C@H](CCCNC(=N)N)C(=O)N[C@H](CCCCN)C(N)=O [LV-12] (Ac-[dR][dK][dNle][dNle][d2Nal][dR][dNle][dK][d2Nal][dR][dK]-NH2)
1

###

Would you kindly list Number of mice that died on each day after infection: day 3 for each of these compounds?
- System: Pseudomonas aeruginosa ATCC 27853
- procedure-summary: Injectable formulations on mice infected with peritonitis
- Assay type: in vivo, ICR mice
- condition-notes: 0.2 mg/kg via tail vein, twice a day for 3 days, n = 10
Non-standard residues stand in square brackets, D forms with d. Residues, ends and D or L forms follow the SMILES beside them. d2Nal = N[C@H](Cc1ccc2ccccc2c1)C(=O)O; dNle = CCCC[C@@H](N)C(=O)O
Numbers only, in Mouse.

Field: example entries. Status: answers known.
compound: CC(=O)N[C@H](CCCNC(=N)N)C(=O)N[C@H](CCCCN)C(=O)N[C@H](CC(C)C)C(=O)N[C@H](CC(C)C)C(=O)N[C@H](Cc1ccc2ccccc2c1)C(=O)N[C@H](CCCNC(=N)N)C(=O)N[C@H](CC(C)C)C(=O)N[C@H](CCCCN)C(=O)N[C@H](Cc1ccc2ccccc2c1)C(=O)N[C@H](CCCNC(=N)N)C(=O)N[C@H](CCCCN)C(N)=O [LV-20] (Ac-[dR][dK][dL][dL][d2Nal][dR][dL][dK][d2Nal][dR][dK]-NH2)
measured: 2

compound: CCCC[C@@H](NC(=O)[C@@H](CCCCN)NC(=O)[C@@H](CCCNC(=N)N)NC(C)=O)C(=O)N[C@H](CCCC)C(=O)N[C@H](Cc1ccc2ccccc2c1)C(=O)N[C@H](CCCNC(=N)N)C(=O)N[C@H](CCCC)C(=O)N[C@H](CCCCN)C(=O)N[C@H](Cc1ccc2ccccc2c1)C(=O)N[C@H](CCCNC(=N)N)C(=O)N[C@H](CCCCN)C(N)=O [LV-12] (Ac-[dR][dK][dNle][dNle][d2Nal][dR][dNle][dK][d2Nal][dR][dK]-NH2)
measured: 0

Alright, here's another compound for you.
Name the reported Number of mice that died on each day after infection: day 3 value associated with the compound CC(=O)N[C@H](CCCNC(=N)N)C(=O)N[C@H](CCCNC(=N)N)C(=O)N[C@H](CC(C)C)C(=O)N[C@H](CC(C)C)C(=O)N[C@H](Cc1ccc2ccccc2c1)C(=O)N[C@H](CCCNC(=N)N)C(=O)N[C@H](CC(C)C)C(=O)N[C@H](CCCNC(=N)N)C(=O)N[C@H](Cc1ccc2ccccc2c1)C(=O)N[C@H](CCCNC(=N)N)C(=O)N[C@H](CCCNC(=N)N)C(N)=O [LV-1] (Ac-[dR][dR][dL][dL][d2Nal][dR][dL][dR][d2Nal][dR][dR]-NH2)
1

###

- System: rabbit red blood cells
- Type: cell-based
- condition-notes: red cells of rabbit, 1 h
Non-standard residues stand in square brackets, D forms with d. Residues, ends and D or L forms follow the SMILES beside them. Phe(4-Br) = N[C@@H](Cc1ccc(Br)cc1)C(=O)O; Phe(4-Me) = Cc1ccc(C[C@H](N)C(=O)O)cc1; 2Nal = N[C@@H](Cc1ccc2ccccc2c1)C(=O)O
measured-metric: MHC (minimum hemolytic concentration, lowest concentration causing 10% hemolysis)

Field: example entries. Status: answers known.
molecule: CC(=O)N[C@@H](CCCCN)C(=O)N[C@@H](CCCNC(=N)N)C(=O)N[C@@H](CC(C)C)C(=O)N[C@@H](CC(C)C)C(=O)N[C@@H](Cc1ccc2ccccc2c1)C(=O)N[C@@H](CCCCN)C(=O)N[C@@H](CC(C)C)C(=O)N[C@@H](CCCCN)C(=O)N[C@@H](Cc1ccc2ccccc2c1)C(=O)N[C@@H](CCCCN)C(=O)N[C@@H](CCCNC(=N)N)C(N)=O [LV-53] (Ac-KRLL[2Nal]KLK[2Nal]KR-NH2)
measured: >1000 µg/mL
//
molecule: CC(=O)N[C@@H](CCCNC(=N)N)C(=O)N[C@@H](CCCCN)C(=O)N[C@@H](CC(C)C)C(=O)N[C@@H](CC(C)C)C(=O)N[C@@H](Cc1ccc(C)cc1)C(=O)N[C@@H](CCCCN)C(=O)N[C@@H](CC(C)C)C(=O)N[C@@H](CCCCN)C(=O)N[C@@H](Cc1ccc(C)cc1)C(=O)N[C@@H](CCCCN)C(=O)N[C@@H](CCCNC(=N)N)C(N)=O [LV-41] (Ac-RKLL[Phe(4-Me)]KLK[Phe(4-Me)]KR-NH2)
measured: >1000 µg/mL

Query for rabbit red blood cells: what MHC (minimum hemolytic concentration, lowest concentration causing 10% hemolysis) does the record show for CC(=O)N[C@@H](CCCCN)C(=O)N[C@@H](CCCCN)C(=O)N[C@@H](CC(C)C)C(=O)N[C@@H](CC(C)C)C(=O)N[C@@H](Cc1ccc(Br)cc1)C(=O)N[C@@H](CCCNC(=N)N)C(=O)N[C@@H](CC(C)C)C(=O)N[C@@H](CCCCN)C(=O)N[C@@H](Cc1ccc(Br)cc1)C(=O)N[C@@H](CCCNC(=N)N)C(=O)N[C@@H](CCCCN)C(N)=O [LV-40] (Ac-KKLL[Phe(4-Br)]RLK[Phe(4-Br)]RK-NH2) ?
>1000 µg/mL
